Data provenance is PubChem BioAssay AID2060888.

tested on: 695427-040-R-J1-PDC complex spheroid viability; experiment: Anticancer human tumor 695427-040-R-J1-PDC patient-derived colon adenocarcinoma cell line growth inhibition [RAS]; settings: second compound 0.0949 µM; first compound 0.03 µM; stronger effect = lower value
Measured viability, T/C by item

Look over these answered cases.
# input For the compound CCc1c2c(nc3ccc(O)cc13)-c1cc3c(c(=O)n1C2)COC(=O)[C@]3(O)CC + CCn1c(-c2cc(N3CCN(C)CC3)cnc2C(C)OC)c2c3cc(ccc31)-c1csc(n1)CC(NC(=O)C1CC1C)C(=O)N1CCCC(N1)C(=O)OCC(C)(C)C2 , give its measured viability, T/C value.
# output 31.8%

# input For the compound CCc1c2c(nc3ccc(O)cc13)-c1cc3c(c(=O)n1C2)COC(=O)[C@]3(O)CC + CCn1c(-c2cccnc2C(C)OC)c2c3cc(ccc31)N1CCOC(CC(NC(=O)C(C(C)C)N(C)C(=O)C3(F)CCN(C(=O)C#CC(C)(C)N(C)C)CC3)C(=O)N3CCCC(N3)C(=O)OCC(C)(C)C2)C1 , give its measured viability, T/C value.
# output 49.7%

# input For the compound CC1(C)CCC(Nc2ncc(C(F)(F)F)c(-c3c[nH]c4c(P(C)(C)=O)c(C#N)ccc34)n2)CN1 (centres undefined) + CCn1c(-c2cc(N3CCN(C)CC3)cnc2C(C)OC)c2c3cc(ccc31)-c1csc(n1)CC(NC(=O)C1CC1C)C(=O)N1CCCC(N1)C(=O)OCC(C)(C)C2 , give its measured viability, T/C value.
# output 47.4%

For the next question, use this compound.
# input For the compound CC1(C)CCC(Nc2ncc(C(F)(F)F)c(-c3c[nH]c4c(P(C)(C)=O)c(C#N)ccc34)n2)CN1 (centres undefined) + CCn1c(-c2cccnc2C(C)OC)c2c3cc(ccc31)N1CCOC(CC(NC(=O)C(C(C)C)N(C)C(=O)C3(F)CCN(C(=O)C#CC(C)(C)N(C)C)CC3)C(=O)N3CCCC(N3)C(=O)OCC(C)(C)C2)C1 , give its measured viability, T/C value.
# output 98%

* * *

system: 695427-040-R-J1-PDC complex spheroid viability; test: Anticancer human tumor 695427-040-R-J1-PDC cell line growth inhibition [RAS]; settings: second compound 0.0949 µM; first compound 3.16 µM; stronger effect = lower value;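 further: viability read after seven days of drug exposure; 100% = DMSO vehicle control viability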
outcomeMeasure: viability, T/C (%)
Your answer should be a plain number; it is taken to be in %.

Look over these answered cases.
# input For the compound CC(C)NCC(C(=O)N1CCN(c2ncnc3c2C(C)CC3O)CC1)c1ccc(Cl)cc1 (centres undefined) + CCn1c(-c2cc(N3CCN(C)CC3)cnc2C(C)OC)c2c3cc(ccc31)-c1csc(n1)CC(NC(=O)C1CC1C)C(=O)N1CCCC(N1)C(=O)OCC(C)(C)C2 , give its measured viability, T/C value.
# output 41.9

# input For the compound Cc1nc(N2CCC3(CC2)COC(C)C3N)c(CO)nc1Sc1ccnc(N)c1Cl (centres undefined) + CCn1c(-c2cc(N3CCN(C)CC3)cnc2C(C)OC)c2c3cc(ccc31)-c1csc(n1)CC(NC(=O)C1CC1C)C(=O)N1CCCC(N1)C(=O)OCC(C)(C)C2 , give its measured viability, T/C value.
# output 23

# input For the compound C[C@@H](NC(=O)c1ncnc(N)c1Cl)c1ncc(C(=O)Nc2cc(C(F)(F)F)c(Cl)cn2)s1 + CCn1c(-c2cc(N3CCN(C)CC3)cnc2C(C)OC)c2c3cc(ccc31)-c1csc(n1)CC(NC(=O)C1CC1C)C(=O)N1CCCC(N1)C(=O)OCC(C)(C)C2 , give its measured viability, T/C value.
# output 72.4

Continuing:
# input For the compound CC(Nc1ccc2c(c1)OCCn1cc(N3C(=O)OCC3C(F)F)nc1-2)C(N)=O (centres undefined) + CCn1c(-c2cc(N3CCN(C)CC3)cnc2C(C)OC)c2c3cc(ccc31)-c1csc(n1)CC(NC(=O)C1CC1C)C(=O)N1CCCC(N1)C(=O)OCC(C)(C)C2 , give its measured viability, T/C value.
# output 21.3

# input For the compound CCC(CC)c1cc(NC2CCC(N)C2)n2nccc2n1 (centres undefined) + CCn1c(-c2cccnc2C(C)OC)c2c3cc(ccc31)N1CCOC(CC(NC(=O)C(C(C)C)N(C)C(=O)C3(F)CCN(C(=O)C#CC(C)(C)N(C)C)CC3)C(=O)N3CCCC(N3)C(=O)OCC(C)(C)C2)C1 , give its measured viability, T/C value.
# output 13.3

# input For the compound CC1(O)CCCC1n1c(=O)c(C(F)F)cc2cnc(NC3CCN(S(C)(=O)=O)CC3)nc21 (centres undefined) + CCn1c(-c2cccnc2C(C)OC)c2c3cc(ccc31)N1CCOC(CC(NC(=O)C(C(C)C)N(C)C(=O)C3(F)CCN(C(=O)C#CC(C)(C)N(C)C)CC3)C(=O)N3CCCC(N3)C(=O)OCC(C)(C)C2)C1 , give its measured viability, T/C value.
# output 124

# input For the compound C[C@@H](NC(=O)c1ncnc(N)c1Cl)c1ncc(C(=O)Nc2cc(C(F)(F)F)c(Cl)cn2)s1 + CCn1c(-c2cccnc2C(C)OC)c2c3cc(ccc31)N1CCOC(CC(NC(=O)C(C(C)C)N(C)C(=O)C3(F)CCN(C(=O)C#CC(C)(C)N(C)C)CC3)C(=O)N3CCCC(N3)C(=O)OCC(C)(C)C2)C1 , give its measured viability, T/C value.
# output 89.8

# input For the compound CCC(CC)c1cc(NC2CCC(N)C2)n2nccc2n1 (centres undefined) + CCn1c(-c2cc(N3CCN(C)CC3)cnc2C(C)OC)c2c3cc(ccc31)-c1csc(n1)CC(NC(=O)C1CC1C)C(=O)N1CCCC(N1)C(=O)OCC(C)(C)C2 , give its measured viability, T/C value.
# output 11

# input For the compound CC(=O)OC12COC1CC(O)C1(C)C(=O)C(O)C3=C(C)C(OC(=O)C(O)C(NC(=O)OC(C)(C)C)c4ccccc4)CC(O)(C(OC(=O)c4ccccc4)C21)C3(C)C (centres undefined) + CCn1c(-c2cc(N3CCN(C)CC3)cnc2C(C)OC)c2c3cc(ccc31)-c1csc(n1)CC(NC(=O)C1CC1C)C(=O)N1CCCC(N1)C(=O)OCC(C)(C)C2 , give its measured viability, T/C value.
# output 32.4
